Task for the reader: assign each of the following compounds its reported pEC50.
- SYSTEM_TESTED: Metabotropic glutamate receptor 4 (Homo sapiens, UniProt Q14833)
- Sequence (Q14833 whole entry): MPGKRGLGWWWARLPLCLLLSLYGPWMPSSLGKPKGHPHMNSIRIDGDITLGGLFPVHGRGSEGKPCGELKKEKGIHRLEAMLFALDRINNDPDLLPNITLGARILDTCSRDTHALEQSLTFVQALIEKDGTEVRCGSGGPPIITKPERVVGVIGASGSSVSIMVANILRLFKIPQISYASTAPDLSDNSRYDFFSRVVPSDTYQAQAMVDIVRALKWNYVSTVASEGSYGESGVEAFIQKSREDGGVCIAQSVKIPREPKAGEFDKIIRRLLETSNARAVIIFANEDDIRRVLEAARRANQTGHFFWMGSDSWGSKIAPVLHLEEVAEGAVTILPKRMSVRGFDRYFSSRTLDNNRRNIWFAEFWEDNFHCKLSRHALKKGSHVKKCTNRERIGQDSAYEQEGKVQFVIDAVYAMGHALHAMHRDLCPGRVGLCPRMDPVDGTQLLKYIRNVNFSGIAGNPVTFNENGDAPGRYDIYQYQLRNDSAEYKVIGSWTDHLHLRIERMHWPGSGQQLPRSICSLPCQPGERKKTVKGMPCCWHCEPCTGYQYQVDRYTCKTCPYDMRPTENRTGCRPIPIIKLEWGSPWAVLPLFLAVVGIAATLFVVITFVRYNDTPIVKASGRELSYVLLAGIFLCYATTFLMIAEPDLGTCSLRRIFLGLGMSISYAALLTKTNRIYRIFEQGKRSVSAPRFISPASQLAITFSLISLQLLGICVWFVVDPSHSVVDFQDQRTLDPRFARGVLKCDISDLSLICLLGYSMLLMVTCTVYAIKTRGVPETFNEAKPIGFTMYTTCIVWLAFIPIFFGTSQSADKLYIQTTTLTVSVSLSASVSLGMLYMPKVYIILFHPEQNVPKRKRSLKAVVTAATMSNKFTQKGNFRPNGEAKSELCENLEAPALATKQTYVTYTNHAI
- PROTOCOL_DESCRIPTION: Positive allosteric modulation of human mGlu4 receptor expressed in CHO cells assessed as potentiation of glutamate-induced calcium mobilization
- Format: functional, cell-based
Please note pEC50 is a logarithmic value: minus log10 of concentration in mol/L. Answer with that number alone.

What reported pEC50 corresponds to CN(c1ccccc1Cl)S(=O)(=O)c1ccc(NC(=O)c2nccs2)cc1 on Metabotropic glutamate receptor 4 (Homo sapiens, UniProt Q14833)?
6.16

Write down the reported pEC50 of O=C(Nc1ccc(S(=O)(=O)Nc2ccccc2Cl)cc1)c1ccncn1 , test system: Metabotropic glutamate receptor 4 (Homo sapiens, UniProt Q14833).
6.32

Recall the recorded pEC50 for O=C(Nc1ccc(Cl)c(S(=O)(=O)Nc2ccccc2Cl)c1)c1ccccn1 with Metabotropic glutamate receptor 4 (Homo sapiens, UniProt Q14833) and state it.
6.14

// fetch Metabotropic glutamate receptor 4 (Homo sapiens, UniProt Q14833) pEC50 for O=C(Nc1ccc(S(=O)(=O)Nc2ccccc2Cl)cc1)c1cccc(F)n1
6.91

Request - read-out pEC50 | tested on Metabotropic glutamate receptor 4 (Homo sapiens, UniProt Q14833) | compound O=C(Nc1ccc(CS(=O)(=O)c2ccccc2Cl)cc1)c1ccccn1
5.66

Quick check: pEC50 on Metabotropic glutamate receptor 4 (Homo sapiens, UniProt Q14833), item O=C(Nc1ccc(S(=O)(=O)Nc2ccccc2Cl)cc1)c1nccs1 ?
7.11

GET /values?readout=pEC50&system=Metabotropic glutamate receptor 4 (Homo sapiens, UniProt Q14833)&item= O=C(Nc1ccc(S(=O)(=O)Nc2ccccc2)cc1)c1ccccn1
6.75
